# Read-out: Tissue Factor, F3 (gene 2152)
# test-name: BSK_LPS_TissueFactor: BioMAP Diversity Plus: LPS Assay for Tissue Factor Biomarker Activity (AID 2283084)
# test-parameters: primary human HUVEC with PBMC; actives raise or lower the signal
Active and inactive are the calls of the source. How the source made its calls: active means hit-call score of the fitted dose curve at least 0.9, where 1 is the maximum; inactive means score below 0.9.
Outcomes: y = active, n = inactive

INSERT INTO measurements (compound, assigned_category) VALUES
  ('CCCCCCCC1CCCC1=O (configuration not stated)', 'n'),
  ('c1ccc2c(c1)-c1ccc3ccc4cccc5cc-2c1c3c45', 'y'),
  ('CCCCCCCCCC(=O)OCC', 'n'),
  ('CCCCCCCCCCCCS', 'n'),
  ('O=C(O)C(F)(F)OC(F)(F)C(F)(F)OC(F)(F)C(F)(F)C(F)(F)C(F)(F)F', 'n'),
  ('O=S(=O)(O)C(F)(F)C(F)(F)OC(F)(F)C(F)(F)F', 'n'),
  ('COc1ccccc1NC(=O)CC(C)=O', 'n');

* * *

# Read-out: Cytochrome P450 (CYP2B6), CYP2B6 (gene 1555)
# test-name: LTEA_HepaRG_CYP2B6: Life Technologies and Expression Analysis (LTEA) Assay for Cytochrome P450 (CYP2B6) using HepaRG (AID 2283481)
# test-parameters: mRNA level, 48 h; actives raise or lower the signal
Calls of active or inactive are those of the source. The calls were made as follows: active = hit-call score of the fitted dose curve at least 0.9, where 1 is the maximum; inactive = score below 0.9.
Outcomes: YES = active, NO = inactive

INSERT INTO measurements (smiles_input, assigned_category) VALUES
  ('C=C(C)C(N)=O', 'NO'),
  ('CC/C(=C(\c1ccccc1)c1ccc(OCCN(C)C)cc1)c1ccccc1', 'NO'),
  ('C#C[C@]1(O)CC[C@H]2[C@@H]3CCc4cc(O)ccc4[C@H]3CC[C@@]21C', 'YES'),
  ('C[C@]12CC[C@@H]3c4ccc(O)cc4CC[C@H]3[C@@H]1CC[C@@H]2O', 'YES'),
  ('COC(=O)c1ccc(C(=O)OC)cc1', 'NO'),
  ('O=C(c1ccc(OCCN2CCCCC2)cc1)c1c(-c2ccc(O)cc2)sc2cc(O)ccc12', 'YES');

* * *

# measured-target: Nucleoli Translocation, AR (gene 367) (UniProt P10275)
# Sequence (P10275 whole entry, looked up): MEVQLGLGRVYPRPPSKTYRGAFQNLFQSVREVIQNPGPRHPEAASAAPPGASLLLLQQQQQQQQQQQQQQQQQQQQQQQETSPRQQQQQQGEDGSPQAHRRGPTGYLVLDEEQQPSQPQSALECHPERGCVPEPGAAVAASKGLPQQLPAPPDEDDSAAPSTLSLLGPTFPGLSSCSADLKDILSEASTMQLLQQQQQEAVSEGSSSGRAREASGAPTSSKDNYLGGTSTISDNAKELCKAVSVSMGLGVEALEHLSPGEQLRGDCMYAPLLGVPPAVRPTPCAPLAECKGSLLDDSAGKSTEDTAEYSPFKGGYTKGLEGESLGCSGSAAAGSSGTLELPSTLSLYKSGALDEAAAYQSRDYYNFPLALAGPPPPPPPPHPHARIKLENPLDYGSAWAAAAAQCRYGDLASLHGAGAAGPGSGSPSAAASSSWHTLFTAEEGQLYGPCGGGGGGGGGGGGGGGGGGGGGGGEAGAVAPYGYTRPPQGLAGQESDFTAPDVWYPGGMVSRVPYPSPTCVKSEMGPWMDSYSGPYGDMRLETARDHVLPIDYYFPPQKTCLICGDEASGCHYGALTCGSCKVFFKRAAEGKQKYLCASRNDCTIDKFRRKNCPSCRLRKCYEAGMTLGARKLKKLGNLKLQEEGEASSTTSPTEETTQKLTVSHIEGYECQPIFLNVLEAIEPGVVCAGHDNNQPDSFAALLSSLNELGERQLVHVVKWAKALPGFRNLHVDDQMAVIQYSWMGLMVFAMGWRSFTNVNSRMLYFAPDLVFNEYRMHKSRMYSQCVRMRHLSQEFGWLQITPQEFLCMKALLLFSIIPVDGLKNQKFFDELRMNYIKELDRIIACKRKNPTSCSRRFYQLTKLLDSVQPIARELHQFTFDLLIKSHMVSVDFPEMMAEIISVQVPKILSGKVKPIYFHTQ
# test-name: UPITT_HCI_U2OS_AR_TIF2_Nucleoli_Agonist: University of Pittsburgh U2OS Androgen Receptor-Transcriptional Intermediary Factor 2 (AR-TIF2) Agonism High Content Imaging Assay for Nucleoli Translocation (AID 2283998)
Results filed as inconclusive are left out. The source made the active and inactive calls. The calls were made as follows: active = hit-call score of the fitted dose curve at least 0.9, where 1 is the maximum; inconclusive = response in the unintended direction; inactive = score below 0.9.
Outcomes: active, inactive

INSERT INTO measurements (compound, assigned_category) VALUES
  ('CCCCCCOc1ccc(O)cc1', 'active'),
  ('COC(=O)c1cccc(C(=O)OC)c1', 'inactive'),
  ('CCOc1ccc(NC(C)=O)cc1', 'inactive'),
  ('CCO[Si](CC)(OCC)OCC', 'inactive'),
  ('CC(CCO)CC(C)(C)C (configuration not stated)', 'inactive'),
  ('CCC(C)(C)C1CCC(=O)CC1', 'inactive'),
  ('CC1COC(=O)O1 (configuration not stated)', 'inactive');

* * *

# test-name: ATG_PBREM_CIS: Attagene CIS-FACTORIAL HepG2 Assay for human Phenobarbital-responsive Enhancer Module (PBREM) (AID 2282955)
# test-parameters: HepG2 PBREM cis-reporter, Attagene multiplexed transcription; actives raise or lower the signal
Calls of active or inactive are those of the source. Rule for the calls: active = hit-call score of the fitted dose curve at least 0.9, where 1 is the maximum; inactive = score below 0.9.
Outcomes: 1 (active), 0 (inactive)

INSERT INTO assay_data (molecule, assigned_category) VALUES
  ('CC(=O)Nc1cc(S(=O)(=O)O)cc2cc(S(=O)(=O)O)c(N=Nc3ccccc3)c(O)c12', 0),
  ('COc1ccc(N)c(C)c1', 1),
  ('CCC(C)(C)c1cc(O)c(C(C)(C)CC)cc1O', 0),
  ('CCC(C)(CCCC(C)C)OC(C)=O (configuration not stated)', 0),
  ('CCCCCCCCCO', 0),
  ('CCOC(=O)CC1(C)OCC(C)O1 (configuration not stated)', 0),
  ('NC(N)=S', 0),
  ('[Na+]', 0),
  ('[Cl][Dy]([Cl])[Cl]', 0),
  ('CC/C=C\CCOC(C)OCC (configuration not stated)', 0),
  ('CCCCCC#CC(=O)OC', 0),
  ('Cc1cc(O)c2c(c1)C(=O)c1cc(O)cc(O)c1C2=O', 1),
  ('C=COCC1CCC(COC=C)CC1 (configuration not stated)', 0),
  ('CC(=O)C1=C(C)[C@@H]2C[C@@]3(C1)[C@H](C)CC[C@H]3C2(C)C', 1),
  ('O=C1CCCCCCCCCCCC(=O)OCCO1', 0),
  ('O=C(O)c1ccccc1O', 0),
  ('[O-]/[N+](=N\O)c1ccccc1', 0),
  ('CC1=CCC(=C(C)C)CC1', 0),
  ('CCCCCCCCCOS(=O)(=O)O', 0),
  ('CC(=O)C1C(=O)C=C(C)OC1=O (configuration not stated)', 0),
  ('CC(=O)OC(C)(C)C1CC=C(C)CC1 (configuration not stated)', 0),
  ('Cc1cc(O)c(C)c(C)c1O', 0),
  ('O=C1OCc2ccccc21', 0),
  ('CCCC1CCC(=O)CC1', 0),
  ('CCCCCCCCOS(=O)(=O)O', 0),
  ('Cc1cccc(O)c1', 0),
  ('CNC(=C[N+](=O)[O-])NCCSCc1ccc(CN(C)C)o1', 0),
  ('N#CCCNCCC#N', 0),
  ('CC1COC(=O)O1 (configuration not stated)', 0),
  ('CC(=O)c1ccc2ccccc2c1', 0),
  ('CCOC(=O)C(=O)OCC', 0),
  ('CN1CCc2cccc3c2[C@H]1Cc1ccc(O)c(O)c1-3', 0);
